- Test system: BDF1 mice, P388/VCR leukemia ip, median survival T/C
- ASSAY_PROCEDURE: NCI In Vivo Anticancer Drug Screen. Data for tumor model P388 Leukemia resistant to Vincristine; NSC 67574 (intraperitoneal) in B6D2F1 (BDF1) mice
- RUN_CONDITIONS: endpoint: median survival time; dose: 250.0 mg/kg/injection; schedule: Q01DX010 (ip); vehicle: saline
Inconclusive results and toxic doses are left out. How the source made its calls: active means survival T/C of 150% or more; inactive means T/C below 125% in these data.
Outcome codes: yes = active, no = inactive

- O=C(Nc1ccc(NC(=O)Nc2ccc(C3=NCCN3)cc2)cc1)Nc1ccc(C2=NCCN2)cc1: yes
- c1ccc(CCSc2ncnc3nc[nH]c23)cc1: no
- CCOC(=O)NP(=O)(N1CC1(C)C)N1CC1(C)C (stereo unspecified): yes
- O=C(Nc1ccc(C2=NCCN2)cc1)c1ccc(C(=O)Nc2ccc(C3=NCCN3)cc2)cc1: yes
- CCCSc1ncnc2nc[nH]c12: no
- O=C(Nc1ccc(C2=NCCN2)cc1)c1cc(C(=O)Nc2ccc(C3=NCCN3)cc2)cc([N+](=O)[O-])c1: no

---

- System: BDF1 mice, P388/VCR leukemia ip, median survival T/C
- ASSAY_PROCEDURE: NCI In Vivo Anticancer Drug Screen. Data for tumor model P388 Leukemia resistant to Vincristine; NSC 67574 (intraperitoneal) in B6D2F1 (BDF1) mice
- RUN_CONDITIONS: endpoint: median survival time; dose: 100.0 mg/kg/injection; schedule: Q01DX010 (ip); vehicle: saline; higher = longer survival
Toxic doses and inconclusive results are not listed.
ENDPOINT_NAME: T/C

- CCN(CC)CCNc1ccc(C)c2sc3ccccc3c(=O)c12: 100 % of control
- O=c1cnn(C2OC(CO)C(O)C2O)c(=O)[nH]1 (stereo not given): 107 % of control
- O=C(Nc1ccc(C2=NCCN2)cc1)c1ccc(C(=O)Nc2ccc(C3=NCCN3)cc2)c(NC(=O)c2ccc(C(=O)Nc3cc(C(=O)Nc4ccc(C5=NCCN5)cc4)ccc3C(=O)Nc3ccc(C4=NCCN4)cc3)cc2)c1: 104 % of control
- O=C1C(NC(=O)C2CCCCC2)=C(N2CC2)C(=O)C(NC(=O)C2CCCCC2)=C1N1CC1: 115 % of control
- COc1cc(-c2ccc(Nc3ccccc3C(=O)O)c(OC)c2)ccc1Nc1ccccc1C(=O)O: 150 % of control
